- Tested on: RPMI-8226 leukemia
- Protocol Description: NCI tumour cell line growth inhibition, 48 h
Quantity Measured: TGI

Input: Specify TGI for `CC(C)(CC(=O)Nc1ccccc1)C(=O)O` , system RPMI-8226 leukemia.
Output: > 100 µM

Input: Specify TGI for `CC/C(=C(/c1ccc(O)cc1)c1ccc(OCCNC)cc1)c1ccccc1` , system RPMI-8226 leukemia.
Output: 4.64 µM

Input: Specify TGI for `Cc1ccc2c(c1)[n+]([O-])c(N)n[n+]2[O-]` , system RPMI-8226 leukemia.
Output: > 100 µM

Consider now this further molecule.
Input: Specify TGI for CC[C@@H]1CN(C)[C@H]2Cc3c([nH]c4ccccc34)C(=O)C[C@H]1C2C(=O)OC (some centres undefined) , system RPMI-8226 leukemia.
Output: > 100 µM

---

Reported GI50 values for a set of molecules
- Test system: SK-MEL-5 melanoma
- Protocol Description: NCI tumour cell line growth inhibition, 48 h

Worked cases, answers included:
Input: Using the record for `CCC[CH2][Sn]1([CH2]CCC)[O]Cc2nc(C)ccc2[O]1` , state its measured GI50.
Output: 13 µM

Input: Using the record for `Cc1ccc(NC(=O)c2cccc(N(C)C)c2)cc1NC(=O)c1ccc(O)cc1` , state its measured GI50.
Output: 28.5 µM

Input: Using the record for CC1(C)OC2[C@@H](CNC(=O)NC(=O)NC(=O)CI)O[C@@H](n3cnc4c(NC(=O)Nc5ccccc5)ncnc43)[C@H]2O1 (some centres undefined) , state its measured GI50.
Output: 8.74 µM

Input: Using the record for `O=C(N/N=C/c1ccccc1O)c1ccccc1Nc1ccnc(C(F)(F)F)c1` , state its measured GI50.
Output: 0.432 µM

Input: Using the record for `C=C1C(=O)O[C@H]2[C@H]1CC/C(COC(=O)c1ccc3ccccc3c1)=C\CC[C@@]1(C)O[C@@H]21` , state its measured GI50.
Output: 1.63 µM

Input: Using the record for `COc1ccc(/C(COc2c(-c3ccccc3)oc3ccccc3c2=O)=N\O)cc1` , state its measured GI50.
Output: 9.61 µM

Others:
Input: Using the record for `O=c1/c(=C/c2ccco2)sc2nc3ccccc3n12` , state its measured GI50.
Output: > 100 µM

Input: Using the record for `O=C1c2cc(Cl)ccc2S(=O)(=O)c2c(NCCCNCCO)nc3ccccc3c21` , state its measured GI50.
Output: 2.5 µM

Input: Using the record for `Nc1nc(Cl)c2ncn(Cc3ccc(C45CC6CC(CC(C6)C4)C5)c(O)c3)c2n1` , state its measured GI50.
Output: 0.558 µM

---

Reported TGI values for a set of compounds
- Test system: OVCAR-5 ovarian
- Protocol Description: NCI tumour cell line growth inhibition, 48 h

Worked cases, answers included:
Input: Using the record for `Cc1cc2c(cc1C)[n+](=O)c(C(=O)C/C(=N/NC(=O)CC#N)C(=O)Nc1ccccc1C(F)(F)F)c(C)n2[O-]` , state its measured TGI.
Output: > 100 µM

Input: Using the record for `Cn1c2ccccc2n2c(=O)c3cc([N+](=O)[O-])ccc3c(C#N)c12` , state its measured TGI.
Output: > 100 µM

Input: Using the record for C=C1C(=O)O[C@@]23C1CC[C@@H](C)C2CC[C@@]1(C)OC31 (stereo not given in full) , state its measured TGI.
Output: 26.7 µM

Others:
Input: Using the record for `Oc1ccc(NCc2nc3ccccc3[nH]2)cc1` , state its measured TGI.
Output: > 100 µM

Input: Using the record for COC12C=C(C)C(CC1)CC2C(=O)O (stereo not given) , state its measured TGI.
Output: > 100 µM
